Assay: Stability confirmation test (impurity formation during storage under severe conditions, liquid chromatography)
Format: physicochemical
Settings: moisture-proof condition (60° C., less than 10% relative humidity), After 2 weeks
Method: The stability test was carried out for the crystalline forms prepared in the Examples to evaluate the degree to which impurities were formed during storage under severe conditions (moisture-proof condition and high-humidity exposure condition). […] The resulting supernatant was analyzed using a liquid chromatography. […]
METRIC NAME: Peak area of total impurities
# do not omit the unit; it follows the number

# input molecule: CNCc1cn(S(=O)(=O)c2cccc(F)c2)c(-c2ccc(F)cc2F)c1OC.O=C(O)/C=C/C(=O)O ; wanted: its Peak area of total impurities
0.64%

# input molecule: CNCc1cn(S(=O)(=O)c2cccc(F)c2)c(-c2ccc(F)cc2F)c1OC.O=C(O)CCC(=O)O ; wanted: its Peak area of total impurities
0.39%

# input molecule: CNCc1cn(S(=O)(=O)c2cccc(F)c2)c(-c2ccc(F)cc2F)c1OC.Cl ; wanted: its Peak area of total impurities
0.19%

# input molecule: CNCc1cn(S(=O)(=O)c2cccc(F)c2)c(-c2ccc(F)cc2F)c1OC.O=C(O)C(O)C(O)C(=O)O ; wanted: its Peak area of total impurities
0.46%

Where these numbers come from: patent US11858894B2
